Data provenance is the array DNA melting data of Ke et al. (doi:10.1101/2024.01.08.574731).

# measurementDescription: folding enthalpy; higher = less favourable; fluorescence melt of hairpins on a sequencing array, two-state fit
# conditionsUsed: sodium 0.088 M
Values of folding enthalpy greater than or equal to -30 kcal/mol map to YES; values below map to NO.

input: Is folding enthalpy at least -30 kcal/mol? Consider GGTGTGTCGAAAGACACC (((..(((....))))))
output: YES

input: Is folding enthalpy at least -30 kcal/mol? Consider GGAGATGAAAATCTCC ((((((....))))))
output: NO

input: Is folding enthalpy at least -30 kcal/mol? Consider GGGTATGGAAACATGCTC (.(.(((....))).).)
output: YES

input: Is folding enthalpy at least -30 kcal/mol? Consider GTTATGGGAAACCATAAC (((((((....)))))))
output: NO

input: Is folding enthalpy at least -30 kcal/mol? Consider GCGGTAGCCGC ((((...))))
output: YES

input: Is folding enthalpy at least -30 kcal/mol? Consider GTTAGAGCGAAAGCTAAC (((..(((....))))))
output: YES

input: Is folding enthalpy at least -30 kcal/mol? Consider GAGAGACGAAAGTCCTC (((.(((....))))))
output: YES

input: Is folding enthalpy at least -30 kcal/mol? Consider GCCAGCGAAAGCTAAGGC ((((((....)))..)))
output: YES

input: Is folding enthalpy at least -30 kcal/mol? Consider CGCGGATTGCTCCGCG ((((((....))))))
output: NO

input: Is folding enthalpy at least -30 kcal/mol? Consider GCATACGAAAGTATGTGC ((((((....)))..)))
output: YES

input: Is folding enthalpy at least -30 kcal/mol? Consider AACTGGAAACAGTT (((((....)))))
output: YES

input: Is folding enthalpy at least -30 kcal/mol? Consider GAGTCCGAAAGGATGCTC ((((((....)))..)))
output: YES

input: Is folding enthalpy at least -30 kcal/mol? Consider GCACCTGGAAACAGGCGC ((.((((....)))).))
output: NO

input: Is folding enthalpy at least -30 kcal/mol? Consider GCAACGCGAAAGCATTGC ((((.((....)).))))
output: YES

input: Is folding enthalpy at least -30 kcal/mol? Consider GCCTACGAAAGTATGGGC ((((((....)))..)))
output: NO

input: Is folding enthalpy at least -30 kcal/mol? Consider GTCGTAGGAAACTGCGAC ((((.((....)).))))
output: NO

input: Is folding enthalpy at least -30 kcal/mol? Consider GGCAACGAAAGTTTTGCC ((((((....)))..)))
output: YES

input: Is folding enthalpy at least -30 kcal/mol? Consider GTTATCTCGAAAGAGAAC (((..(((....))))))
output: YES

input: Is folding enthalpy at least -30 kcal/mol? Consider GAACATCCGAAAGGATTC (((..(((....))))))
output: YES

input: Is folding enthalpy at least -30 kcal/mol? Consider GGTGCCGAAAGGCATACC ((((((....)))..)))
output: YES

input: Is folding enthalpy at least -30 kcal/mol? Consider GCATGGCGAAAGCTTTGC (((..((....))..)))
output: YES

input: Is folding enthalpy at least -30 kcal/mol? Consider GAGCTCCGAAAGGAACTC (((.(((....))).)))
output: YES

input: Is folding enthalpy at least -30 kcal/mol? Consider GATCGAACATCGATC ((((((...))))))
output: NO

input: Is folding enthalpy at least -30 kcal/mol? Consider GATCAAAAACTTGATC ((((((....))))))
output: YES

input: Is folding enthalpy at least -30 kcal/mol? Consider GCTTAACGAAAGTTGAGC (((.(((....))).)))
output: NO

input: Is folding enthalpy at least -30 kcal/mol? Consider GATCAAGGTTTGATC ((((((...))))))
output: YES

input: Is folding enthalpy at least -30 kcal/mol? Consider GACGGCCGAAAGGCTGTC (((.(((....))).)))
output: YES

input: Is folding enthalpy at least -30 kcal/mol? Consider GACGGAGAAATCCGTC ((((((....))))))
output: NO

input: Is folding enthalpy at least -30 kcal/mol? Consider GGCTCTGAAAAGAGCC ((((((....))))))
output: NO

input: Is folding enthalpy at least -30 kcal/mol? Consider GCCTTGGGAAACCAGGGC (((.(((....))).)))
output: NO

input: Is folding enthalpy at least -30 kcal/mol? Consider GCCTATACGAAAGTAGGC (((..(((....))))))
output: YES

input: Is folding enthalpy at least -30 kcal/mol? Consider GTTGAGGGAAACTTCAGC (.(((.(....).))).)
output: YES

input: Is folding enthalpy at least -30 kcal/mol? Consider GCCATTCCGAAAGGAGGC (((..(((....))))))
output: YES

input: Is folding enthalpy at least -30 kcal/mol? Consider GATCAACATCTTGATC ((((((....))))))
output: YES

input: Is folding enthalpy at least -30 kcal/mol? Consider GGTCCGCGAAAGCGAACC (((.(((....))).)))
output: YES

input: Is folding enthalpy at least -30 kcal/mol? Consider GCGAAGCGAAAGCCTGGC ((.(.((....)).).))
output: YES

input: Is folding enthalpy at least -30 kcal/mol? Consider GTCAACGAAAGTTGAC ((((((....))))))
output: NO

input: Is folding enthalpy at least -30 kcal/mol? Consider GGATGGGGAAACTCGTCC (((.(.(....).).)))
output: YES

input: Is folding enthalpy at least -30 kcal/mol? Consider GCAGTGCGAAAGCTCCGC ((.(.((....)).).))
output: YES

input: Is folding enthalpy at least -30 kcal/mol? Consider GATGCAGAAATGCATC ((((((....))))))
output: NO

input: Is folding enthalpy at least -30 kcal/mol? Consider ATCGTGAAAACGAT (((((....)))))
output: YES

###

# measurementDescription: folding enthalpy; higher = less favourable; fluorescence melt of hairpins on a sequencing array, two-state fit
# conditionsUsed: sodium 0.088 M
measureName: folding enthalpy (kcal/mol)
Provide the reading as a plain figure in kcal/mol.

input: Bench note: what folding enthalpy did GGCGACCGAAAGGTGGCC (((.(((....))).))) show?
output: -29.2

input: Bench note: what folding enthalpy did GATCTGCCCACAGATC ((((((....)))))) show?
output: -37

input: Bench note: what folding enthalpy did GTGACTCGAAAGAGCCAC (((.(((....))).))) show?
output: -38.2

input: Bench note: what folding enthalpy did GCTAAGCGAAAGCCTCGC ((.(.((....)).).)) show?
output: -10.7

input: Bench note: what folding enthalpy did GCTCCGCGAAAGCATAGC (((..((....))..))) show?
output: -10.1

input: Bench note: what folding enthalpy did GTGTGCGGAAACGTACAC ((((.((....)).)))) show?
output: -40.2

input: Bench note: what folding enthalpy did GAACCCGAAAGGGGTTTC ((((((....)))..))) show?
output: -11.6

input: Bench note: what folding enthalpy did GCTCGAGCGAAAGCTAGC (((..(((....)))))) show?
output: -13.2

input: Bench note: what folding enthalpy did GCATTCGAAAGAAGCTGC ((((((....)))..))) show?
output: -23.5

input: Bench note: what folding enthalpy did GGACATGGAAACACGTCC ((((.((....)).)))) show?
output: -30

input: Bench note: what folding enthalpy did GATCAGCGTCTGATC ((((((...)))))) show?
output: -38.8

###

So I've got a bunch of sequences here, and I need their folding enthalpy values.
# measurementDescription: folding enthalpy; higher = less favourable; fluorescence melt of hairpins on a sequencing array, two-state fit
# conditionsUsed: sodium 0.088 M
Provide the reading as a plain figure in kcal/mol.

input: Bench note: what folding enthalpy did GGTATCGAAAGATATACC ((((((....)))..))) show?
output: -19.7

input: Bench note: what folding enthalpy did GATCCAGGAAACCGGATC (((((.(....).))))) show?
output: -33.3

input: Bench note: what folding enthalpy did GACCGCGAAAGCGTGGTC ((((((....)))..))) show?
output: -18.6

input: Bench note: what folding enthalpy did GGAAACTCGAAAGAGTCC (((..(((....)))))) show?
output: -14.3

input: Bench note: what folding enthalpy did GATCGATGATTCGATC ((((((....)))))) show?
output: -36.4

input: Bench note: what folding enthalpy did GTCTACACGAAAGTGGAC (((..(((....)))))) show?
output: -14.1

input: Bench note: what folding enthalpy did GAAGTTGGAAACAACTCC (.(((((....))))).) show?
output: -19.2

input: Bench note: what folding enthalpy did GTCTGTCCGAAAGGAGAC (((..(((....)))))) show?
output: -15.1
